- Test system: MALME-3M melanoma
- Method description: NCI tumour cell line growth inhibition, 48 h
Where a SMILES comes first, the peptide text is derived from it. The star is where a group is joined. Cbz = O=C(OCc1ccccc1)*
Please provide measured TGI for the entries that follow.

# annotated cases, reported TGI shown
[[record]]
molecule = "[Co].[O-]c1cccnc1C=Nc1ccccc1.[OH3+]"
tested_system = "MALME-3M melanoma"
result = "> 100 µM"

[[record]]
molecule = "COC(=O)C(CC(C)C)NC(=O)C(CCCN=C(N)N)NC(=O)OCc1ccccc1 (stereo not drawn) (Cbz-Arg-Leu-OMe; configuration not given here)"
tested_system = "MALME-3M melanoma"
result = "> 100 µM"


Input line: What value of measured TGI is listed for CC(C)(C)OC(=O)N1CC(C)(C)N2C(=O)C3(CCCO3)C12 (stereo not drawn) ?
Output line: > 100 µM

###

- System: EKVX NSCLC
- Method description: NCI tumour cell line growth inhibition, 48 h
Field: TGI. Provide a value for each of the compounds that follow.

As a guide, the following entries are already answered.
[[record]]
compound = "CCOC(=O)[C@@]1(C(C)=O)CC(C)=C(C)C[S@]1=O"
endpoint_label = "TGI"
result = "> 100 µM"

[[record]]
compound = "O=C(CC1(O)C(=O)Nc2ccccc21)c1ccc(Cl)cc1Cl (stereo not drawn)"
endpoint_label = "TGI"
result = "> 100 µM"


Attention now shifts to the item below.
Input line: Recorded TGI of O=C(C=Nc1ccccc1S)c1ccco1 , please.
Output line: 30.2 µM

###

Give measured GI50 for each item. Keep answers brief.
- Tested on: UACC-257 melanoma
- Method description: NCI tumour cell line growth inhibition, 48 h

Example molecules with recorded GI50:
[[record]]
compound_string = "COc1ccc(-c2cc(-c3ccc(OC)cc3)nc(NCCCNc3ccnc4cc(Cl)ccc34)n2)cc1"
result = "1.96 µM"

[[record]]
compound_string = "O=C(Nc1ccccc1Cl)c1ccc(NC2=C(Cl)C(=O)N(C3CCCCC3)C2=O)cc1"
result = "5.29 µM"

[[record]]
compound_string = "C#CCOC(=O)/C=C/C(=O)Oc1ccc2c(C)cc(=O)oc2c1"
result = "> 100 µM"


Please look at the following molecule next.
Input line: Endpoint output: GI50 of CCCCc1n(Cc2ccc3ccccc3n2)cc[n+]1Cc1ccc2ccccc2n1 . Value?
Output line: 0.543 µM

###

Please respond with reported TGI for every item in the list.
- Test system: UO-31 renal
- Method description: NCI tumour cell line growth inhibition, 48 h

See these solved cases before continuing.
[[record]]
molecule = "NNc1nc2ccccc2o1"
tested_system = "UO-31 renal"
endpoint_label = "TGI"
result = "> 100 µM"

[[record]]
molecule = "OCCN(CCO)c1nc(N2CCCCC2)c2nc(N(CCO)CCO)nc(N3CCCCC3)c2n1"
tested_system = "UO-31 renal"
endpoint_label = "TGI"
result = "> 100 µM"

[[record]]
molecule = "CC(ON1[C@](C)(c2ccccc2)CC[C@@]1(C)c1ccccc1)c1ccccc1 (stereo partly drawn)"
tested_system = "UO-31 renal"
endpoint_label = "TGI"
result = "> 100 µM"

[[record]]
molecule = "O=S1(=O)c2ccccc2N2C(c3ccccc3)=NOC2(c2ccccc2)CC1c1ccc(Br)cc1 (stereo not drawn)"
tested_system = "UO-31 renal"
endpoint_label = "TGI"
result = "> 100 µM"

[[record]]
molecule = "COc1cc(/C=C2\\NC(=O)C3Cc4c(OC)c(C)c(OC)c(OC)c4C2N3C)c(OC)c(C)c1OC (stereo not drawn)"
tested_system = "UO-31 renal"
endpoint_label = "TGI"
result = "> 100 µM"


Dear colleague, could you please provide TGI for the molecules listed below?
1. COc1ccc2nc3c(cc2c1)C(=O)CC(c1ccccc1)C3 (stereo not drawn)
2. CC[C@]1(Cc2ccc(OC)c(OC)c2)C2CC(C(=O)OC)ON2O[C@H](OCc2ccccc2)[C@@H]1OC(C)=O (stereo partly drawn)
3. O=C1NC(=S)NC(=O)C1=CC1CC1
4. Cc1ccc(/C=N/NS(=O)(=O)c2ccccc2)cc1C
5. O=c1[nH]nc(CNc2ccc(Cl)cc2Cl)c2ccccc12
6. COc1ccccc1NC(=O)C1=C(C)NC(C)=C(C(=O)Nc2ccccc2OC)C1c1ccccc1Cl
7. Cc1nc2ccccc2c(/C=C/c2ccccc2)c1C(=O)/C=C/c1ccc(C(F)(F)F)cc1

Output line:
> 100 µM
> 100 µM
> 100 µM
> 100 µM
33.7 µM
> 100 µM
2.26 µM

Input line: // query TGI value for entry CNS(=O)(=O)NNS(=O)(=O)c1ccc(F)cc1
Output line: > 100 µM

###

Could you please report measured TGI for the items listed next?
- System: SK-OV-3 ovarian
- Method description: NCI tumour cell line growth inhibition, 48 h

[[record]]
compound = "Cc1cc2c(=O)c(C)n[nH]c2c(C#N)c1C"
result = "> 100 µM"

[[record]]
compound = "CCN(CCO)CCCC(C)Nc1ccnc2cc(Cl)ccc12 (stereo not drawn)"
result = "> 100 µM"

[[record]]
compound = "CCCCCCCC(=O)OC[C@H](C[As](=O)(O)O)OC(=O)CCCCCCC"
result = "29 µM"

[[record]]
compound = "O=S1(=O)c2cc(S(=O)(=O)n3ccnc3)ccc2NC2=NCCCN21"
result = "46.9 µM"

[[record]]
compound = "COc1ccc(-c2cc(=O)c3cc(Cl)ccc3[nH]2)cc1"
result = "> 100 µM"

[[record]]
compound = "CCOC(=O)[C@@]1(C(C)=O)CC(C)=C(C)C[S@]1=O"
result = "> 100 µM"


Value sought for every listed compound: TGI.
1. Cc1ccc2[nH]c(C(=O)NN3C(=O)C(C)SC34CCC(C)CC4)c(-c3ccccc3)c2c1 (stereo not drawn)
2. CSc1ccc2c(cc1=O)C(NC(=O)c1ccccc1)CCc1cc(O)c(O)c(O)c1-2 (stereo not drawn)

Output line:
1. > 100 µM
2. > 100 µM

###

- Tested on: HT29 colon
- Method description: NCI tumour cell line growth inhibition, 48 h
Endpoint label: TGI

[[record]]
molecule = "CSc1nc(-c2ccccc2)nc(C(C#N)C#N)n1"
result = "> 100 µM"

[[record]]
molecule = "CSc1ccc2c(cc1=O)C(NC(=O)c1ccccc1)CCc1cc(O)c(O)c(O)c1-2 (stereo not drawn)"
result = "> 100 µM"


# next molecule below
Input line: What is its TGI for HT29 colon? Entry: CC1SC2=NC3=C(c4ccccc4C3=O)C(c3ccccc3Cl)N2C1=O (stereo not drawn)
Output line: > 100 µM

###

- System: SF-539 CNS
- Method description: NCI tumour cell line growth inhibition, 48 h
Endpoint label: TGI

Example entries begin here.
[[record]]
molecule = "Cc1nn(C(=O)Cc2ccccc2)c2c1C(c1ccc([N+](=O)[O-])cc1)SC(N)=N2 (centres undefined)"
endpoint_label = "TGI"
result = "> 100 µM"

[[record]]
molecule = "COc1c(C)c(OC)c(C(=O)CC(C)C)c(OC)c1C"
endpoint_label = "TGI"
result = "> 100 µM"


# batch: return TGI for each of the 7 molecules below
1. CC(ON1[C@](C)(c2ccccc2)CC[C@@]1(C)c1ccccc1)c1ccccc1 (some centres undefined)
2. CC1OC(CC(=O)O)Cc2c1c(O)c1c(O)cc(-c3cc(=O)c4c(=O)c5c(c(=O)c=4c3=O)CC(CC(=O)O)OC5C)c(O)c1c2O (centres undefined)
3. CC(C)c1cccc(C(C)C)c1NC(=O)C(=O)C1CCC2=C(Sc3ccccc3N2)C1=O (centres undefined)
4. OCC(O)COCn1cc(Cn2ncc3c(NCc4ccccc4)ncnc32)nn1 (centres undefined)
5. CCCCC(=O)c1c(O)ccc2c(C)cc(=O)oc12
6. Oc1ccc(C2Oc3cc(O)cc4c3C2c2cc(O)cc3c2C(c2cc(O)cc5c2C4C(c2ccc(O)cc2)O5)C(c2ccc(O)cc2)O3)cc1 (centres undefined)
7. O=C(O)CN1C(=O)CN=C(c2ccccn2)c2cc(Cl)ccc21

Output line:
1: > 100 µM; 2: 36 µM; 3: 76.7 µM; 4: > 100 µM; 5: > 100 µM; 6: 22.8 µM; 7: > 100 µM

###

- Tested on: IGROV1 ovarian
- Method description: NCI tumour cell line growth inhibition, 48 h
Would you kindly list TGI for each of these compounds?

[[record]]
compound = "O=C(Nc1n[nH]c2nc(-c3ccc(O)cc3)c(Br)cc12)C1CC1"
result = "> 20.6 µM"

[[record]]
compound = "Cn1ccc(=NS(=O)(=O)c2ccccc2)cc1"
result = "> 100 µM"

[[record]]
compound = "CCOC(=O)C(NC(=O)c1ccccc1)(c1ccc(S(=O)(=O)Nc2onc(C)c2C)cc1)C(F)(F)F (centres undefined)"
result = "> 100 µM"

[[record]]
compound = "CC(C)(C)OC(=O)NCCC1CNc2ccccc21 (centres undefined)"
result = "> 100 µM"

[[record]]
compound = "N#Cc1ccc([N+](=O)[O-])cc1NC(N)=S"
result = "> 100 µM"


Quick batch: TGI for everything below.
1. CC[C@@H]1CSC(/C=C/C2OC3OC(C)(C)OC3C3OC(C)(C)OC23)=N1 (some centres undefined)
2. COc1ccc(C[C@]23CCC(=O)N2CCc2cc(OC)c(O)cc23)cc1O
3. CSc1nc(NC2OCC(OC(C)=O)C(OC(C)=O)C2OC(C)=O)c2c(n1)OCC2=O (centres undefined)
4. CC(C)C1=CC2=CC[C@@H]3[C@](C)(CCC[C@@]3(C)C(=O)O)[C@H]2CC1
5. CNC(=O)N1CN(c2ccccc2)C2(CCN(Cc3ccccc3)CC2)C1=O
6. O=C(O)CN1C(=O)CN=C(c2ccccn2)c2cc(Cl)ccc21
7. COC(=O)c1sc2c(=O)c(C(=O)OC)c(C(=O)OC)sc2c(=O)c1C(=O)OC
8. CC12C3CC4C5CC(C(C53)[C@@H]1NCc1ccccc1)C42 (some centres undefined)

Output line:
["26 µM", "> 100 µM", "> 100 µM", "> 100 µM", "> 100 µM", "> 100 µM", "> 100 µM", "> 100 µM"]

List TGI for every entry below, keeping the order given.
1. COc1ccc(/C=C2/SC(=Nc3ccccc3)N(NC(=O)Cc3ccccc3)C2=O)c(OC)c1
2. O=C(CCCC(=O)N/N=C/c1cc(Cl)ccc1O)N/N=C\c1cc(Cl)ccc1O
3. Cc1nc2ccccc2c(/C=C/c2ccccc2)c1C(=O)/C=C/c1ccc(C(F)(F)F)cc1
4. Cc1ccc(N=C2OP(=O)(Nc3ccc(C)cc3)Oc3ccccc32)cc1 (centres undefined)

Output line:
["> 100 µM", "> 100 µM", "2.02 µM", "> 100 µM"]

Okay, here is my list. What is TGI for each of these?
1. COc1cc(NS(C)(=O)=O)ccc1Cc1c2ccccc2nc2ccccc12
2. N#Cc1sc2c(c1OC(=O)c1ccc(Cl)cc1Cl)c(=O)n(-c1ccccc1)c(=S)n2-c1ccccc1

Output line:
1. 2.88 µM
2. 38.6 µM
